test system: Hepatocyte; experiment: Intrinsic clearance in human hepatocytes assessed per 10^-6 cells
MEASURE NAME: CLH (µL/min)

P: NC(=O)c1cnc(-c2ccc(C3(N)CCC3)cc2)c(-c2ccccc2)c1
Q: NC1(c2ccc(-c3ncc4cnccc4c3-c3ccccc3)cc2)CCC1
R: NC1(c2ccc(-c3nc4ccccn4c3-c3ccccc3)cc2)CCC1
Sort the entries above numerically by CLH, high end first. Reply with the labels, ordered as the question asks.
Q, R, P
(Q: 300 µL/min, R: 18 µL/min, P: 3 µL/min)

1: NC1(c2ccc(-c3ncc4nccn4c3-c3ccccc3)cc2)CCC1
2: NC1(c2ccc(-c3nn4ccnc4cc3-c3ccccc3)cc2)CCC1
Sort 1 and 2 by CLH descending and give the first. State your choice using its label.
2
